Values were extracted from PubChem BioAssay.

# Assay method text: VP16 transactivation reporter inhibitors, counter-screen for LRH-1 inverse agonist project, cell-based, luminescence, high throughput (AID 651615)
# Study conditions: Gal4-VP16 luciferase reporter cells, at 3.6 µM, active compounds read high
Experimental readout: inhibition (%)

compound=Cc1cc(C)c2c(N)c3cccc(C)c3nc2n1 units_symbol=% reading=89
compound=COCCn1c(C)cc(/C=C(\C#N)C(=O)OCC(=O)Nc2ccc(S(N)(=O)=O)cc2)c1C units_symbol=% reading=-8.79
compound="Cc1sc(NC(=O)c2ccco2)c(C(c2cccnc2)N2CCN(c3ccc(F)cc3)CC2)c1C (centres undefined)" units_symbol=% reading=53.9
compound=Nc1nc(-c2ccccc2)[nH]c(=O)c1N=O units_symbol=% reading=-10.9
compound="CC(NNC(=S)N1CCN(c2ccccn2)CC1)c1nccc2ccccc12 (centres undefined)" units_symbol=% reading=61
compound=Cc1ccc(Sc2ccc(NC(=O)CCl)cc2)cc1C units_symbol=% reading=-14.4
compound=N#Cc1c2c(c(NCCOCCO)n3c1nc1ccccc13)CCCC2 units_symbol=% reading=-0.15
compound="Cc1c(C)c2ccc(OCC(=O)N3CCN(C(=O)C4COc5ccccc5O4)CC3)cc2oc1=O (centres undefined)" units_symbol=% reading=-17.1
compound=O=C(CCC1CCCC1)Nc1ccc(C(=O)NCc2cccnc2)cc1 units_symbol=% reading=66.9
compound=C=CCn1c(CCNC(=O)c2cccs2)nnc1SCC(=O)Nc1cccc(Cl)c1C units_symbol=% reading=2.77
compound=Cc1nn(-c2ccccc2)c(C)c1NC(=O)CCl units_symbol=% reading=-83.9
compound=O=C(CCl)NCCCN(C(=O)C(Cl)Cl)c1ccc([N+](=O)[O-])cc1 units_symbol=% reading=-8.07
compound=C/C(=N\NC(N)=S)c1ccc(Cl)s1 units_symbol=% reading=21.2
compound=COc1ccc(NC(=O)CSc2nnc(-c3ccccn3)n2N)cc1Cl units_symbol=% reading=2.01

----------
# System name: Nuclear receptor coactivator 1 (Homo sapiens)
# Assay method text: SRC1 coactivator transcriptional activity inhibitors, confirmation, cell-based, luminescence, quadruplicate (AID 588820);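 further: 0% = DMSO wells and 100% = gossypol 36 µM treated wells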
# Study conditions: HEK293 GAL4-SRC1 luciferase reporter, at 3.6 µM, active compounds read high
Experimental readout: inhibition (%)

compound=Cc1ccc(S(=O)(=O)N2[C@@H](c3cccc(Cl)c3)C(C(=O)OC(C)(C)C)=CC[C@H]2c2ccc(C(C)C)cc2)cc1 reading=0.74
compound=CCc1nc(N)nc(N)c1-c1ccc(N(C)Cc2ccccc2)c([N+](=O)[O-])c1 reading=69.4
compound=Cc1ccc(C(=O)CN2C(=O)c3ccccc3S2(=O)=O)cc1 reading=-23.7
compound="CCCCC(=O)OCC(=O)C1(O)Cc2c(O)c3c(c(O)c2C(OC2CC(NC(=O)C(F)(F)F)C(O)C(C)O2)C1)C(=O)c1c(OC)cccc1C3=O (stereo unspecified)" reading=29.3
compound=COc1ccc(NC(=O)c2cc([N+](=O)[O-])ccc2O)cc1 reading=-37.7
compound="O=C(C1CCC(CNS(=O)(=O)c2cccs2)CC1)N1CCN(c2ccc(Cl)cc2)CC1 (stereo unspecified)" reading=14.9
compound=Cc1nn(-c2ccccc2)c(N2CCCC2)c1/C=N/NC(=O)c1cc(-c2cccnc2)nc2ccccc12 reading=-42.9
compound=O=C(CSC1=NCCS1)Nc1ccnc2ccccc12 reading=27.5
compound=O=C(CSc1n[nH]c(-c2cccnc2)n1)Nc1ccc([N+](=O)[O-])cc1 reading=-26.9
compound=CCN(CC)CCCNc1nc2ccccc2c2[nH]c3ccc(OC)cc3c12 reading=-3.04
compound=Cc1cc(Br)cn2c(Cc3ccsc3)c(-c3ccc(F)cc3)nc12 reading=6.68
compound=CNC1=C(N(C(C)=O)c2ccc(Br)cc2)C(=O)c2ccccc2C1=O reading=74.2
compound=COc1ccc(CCN(C)C(=O)c2cc(S(=O)(=O)N3CCCCC3)ccc2Cl)cc1OC reading=-9.24
compound="COc1ccccc1OCCC(=O)OCC(=O)NC(C)c1ccccc1 (stereo unspecified)" reading=-8.57
compound=COc1ccc(-c2cnc(N)nc2-c2ccc(OC)cc2O)cc1 reading=29.7
compound=CN1CCN(c2ccc(-c3ccc4ccccc4n3)cc2)CC1 reading=34.8
